Test system: NCI/ADR-RES
assay_comment: NCI tumour cell line growth inhibition, 48 h
Active and inactive are the calls of the source. Rule as the data show it: active = GI50 up to about 1.1 µM and inactive = higher.
// one of label 1 = active, label 0 = inactive, no free text

| molecule | class_name |
| --- | --- |
| COc1cc2c(c(OC)c1OC)-c1ccc(SC)c(=O)cc1[C@@H](NC(=O)C(F)(F)F)CC2 | label 1 |

Could you kindly confirm the outcome this assay logged for CC1(C)OC2[C@@H](CO[C@@]3([C@@H](O)CCO)OC(C)(C)O[C@@H]23)O1 (stereo not given in full) ?
label 0

Same lookup for CN(C)c1ccc(/C=C2\N=C(c3ccccc3)N(c3nc4c(Cl)cc(Cl)cc4s3)C2=O)cc1 , please.
label 0

Same lookup for CCOC(=O)C1OC(=O)CC1C1(C(=O)OCC)C=CC(=O)O1 (stereo not given) , please.
label 0

Same lookup for CN(C)CCOC1(Cc2ccc(Cl)cc2Cl)CCC(C(C)(C)C)CC1 (stereo not given) , please.
label 0

Same lookup for CCOC(=O)c1csc(NC(=O)CN2CCCC2)n1 , please.
label 0

Same lookup for O=C(OCCN=c1c2ccccc2ccc2ccccc12)c1ccc([N+](=O)[O-])cc1 , please.
label 0

Same lookup for CSc1nc2c(c(=O)[nH]1)N=C(c1ccc(Cl)cc1)CC(c1ccccc1)N2 (stereo not given) , please.
label 0
